OBSERVABLE: glass transition temperature (°C)
# value in °C; strip the unit string

For record *CCN(*)C(=O)CCCCCCCCCCCCCCCCC (repeat unit) the listed glass transition temperature is 10.00

# glass transition temperature (molecule: *Oc1ccc(CC(NC(=O)CCc2ccc(OC(=O)CCCCCCC(*)=O)cc2)C(=O)OC(C)C)cc1 (repeat unit) ) is 46.00

Entry under test: *C(=O)Nc1ccc(Oc2ccccc2-c2ccccc2Oc2ccc(NC(=O)c3ccc4c(c3)C(=O)N(c3ccc(N5C(=O)c6ccc(*)cc6C5=O)cc3)C4=O)cc2)cc1 (repeat unit) . Its glass transition temperature was 268.00

Briefly, glass transition temperature measured for */C(F)=C(\F)C(F)(C(*)(F)F)C(F)(F)F (repeat unit) : -3.00

Looking up *CC1CCC(COC(C)OC(=O)c2cccc(C(=O)OC(C)O*)c2)CC1 (repeat unit) , I found its glass transition temperature recorded as 30.00

Quick note, glass transition temperature for */C=C/c1cc(OCC2CC3CC2C2CCCC32)c(*)cc1OC (repeat unit) landed at 174.00

glass transition temperature in this record for *CCOC(=O)/C=C/C(=O)O* (repeat unit) : -10.00

// glass transition temperature lookup, molecule = *CCCCCCCCCCCCCCc1ccc(-c2c(-c3ccccc3)cc(-c3cccc(-c4cc(-c5ccccc5)c(-c5ccc(*)cc5)c(-c5ccccc5)c4-c4ccccc4)c3)c(-c3ccccc3)c2-c2ccccc2)cc1 (repeat unit) , result: 160.00

Note to self: glass transition temperature recorded for *COc1ccc(C(c2ccc(OCC3(*)COC3)cc2)(C(F)(F)F)C(F)(F)F)cc1 (repeat unit) was 134.00

glass transition temperature reported for this molecule *c1cccc(OCCCCOc2cccc(N3C(=O)c4ccc(-c5cccc6c5C(=O)N(*)C6=O)cc4C3=O)c2)c1 (repeat unit) : 178.00

Noted for *CC(=O)NCCCCCCNC(=O)COC(=O)CCC(=O)O* (repeat unit) : its glass transition temperature reads 30.00

For record *CC(*)C(=O)Oc1c(F)c(F)c(F)c(F)c1F (repeat unit) the listed glass transition temperature is 64.00

The molecule identified as *CCCCCCNC(=O)CCCCCCC(=O)N* (repeat unit) registered its glass transition temperature at 57.00

# molecule *CC1CCCC(CN2C(=O)c3ccc(C(=O)c4ccc5c(c4)C(=O)N(*)C5=O)cc3C2=O)C1 (repeat unit) ; its glass transition temperature = 213.00

Given item *Oc1ccc(CC(NC(=O)Cc2ccc(OC(=O)CCCCCCCCC(*)=O)cc2)C(=O)OCC)cc1 (repeat unit) , the value recorded as its glass transition temperature is 43.00

Notebook: *O[Si](C)(C)c1cccc(C(F)(F)C(F)(F)c2cccc([Si](*)(C)C)c2)c1 (repeat unit) , glass transition temperature read as -2.00

*c1ccc(Oc2ccc(-c3ccc(Oc4ccc(N5C(=O)c6ccc(Oc7cccc(Oc8ccc9c(c8)C(=O)N(*)C9=O)c7)cc6C5=O)cc4)cc3)cc2)cc1 (repeat unit) has a reported glass transition temperature of 200.00

Briefly, glass transition temperature measured for *CC(O)COc1ccc(C(C)CC(C)(C)c2ccc(O*)cc2)cc1 (repeat unit) : 75.00

Measured glass transition temperature, *O[Si](*)(C)CCCOc1ccc(C(=O)Oc2ccc(OC(=O)CCCCC(=O)OC3CC(C)CCC3C(C)C)cc2)cc1 (repeat unit) : 45.30

Entry *c1ccc(-c2ccc3c(c2)C(CCCCCCCC)(CCCCCCCC)c2cc(-c4ccc(N(*)c5ccc(N(c6ccc(C(C)(C)c7ccccc7)cc6)c6ccc(C(C)(C)c7ccccc7)cc6)cc5)cc4)ccc2-3)cc1 (repeat unit) — recorded glass transition temperature = 137.00

Briefly, glass transition temperature measured for *CCC(=O)N* (repeat unit) : 128.17

The molecule *CC(*)c1ccc(S(=O)(=O)OCCC)cc1 (repeat unit) showed glass transition temperature equal to 217.00

Measured glass transition temperature of *CC(OC(C)C)C1C(=O)OC(=O)C1* (repeat unit) : 142.00

Per the records, this molecule ( *CC(*)C(=O)n1c2ccccc2c2ccccc21 (repeat unit) ) has glass transition temperature equal to 50.10

Lab book: glass transition temperature of *Oc1ccc(P(C)(=O)c2ccc(Oc3ccc(C(c4ccc(*)cc4)(C(F)(F)F)C(F)(F)F)cc3)cc2)cc1 (repeat unit) noted as 208.00

// sample *c1ccc2c(c1)C(=O)N(c1cc(NC(=O)OCCN(CCOC(=O)Nc3cc(N4C(=O)c5ccc(C(*)(C(F)(F)F)C(F)(F)F)cc5C4=O)ccc3C)c3ccc(/N=N/c4ccc([N+](=O)[O-])cc4)cc3)ccc1C)C2=O (repeat unit) , its glass transition temperature was 196.00

Entry *c1ccc(-c2ccc(N3C(=O)c4ccc(-c5ccc6c(c5)C(=O)N(*)C6=O)cc4C3=O)cc2C(F)(F)F)c(C(F)(F)F)c1 (repeat unit) , glass transition temperature reported as 323.8

Item: *Oc1ccc(C2(c3ccc(OC4(F)C(*)(F)C(F)(F)C4(F)F)cc3)c3ccccc3-c3ccccc32)cc1 (repeat unit) | glass transition temperature: 228.00

Lab note: measured glass transition temperature of *c1ccc(Oc2c(C)cc(C(c3cc(C)c(Oc4ccc(N5C(=O)c6ccc(-c7ccc8c(c7)C(=O)N(*)C8=O)cc6C5=O)cc4)c(C)c3)c3cccc4ccccc34)cc2C)cc1 (repeat unit) was 289.50

Form: molecule = *c1ccc(Oc2ccc(Oc3ccc(Oc4ccc(-c5nc(*)nc(-c6ccccc6)n5)cc4)cc3)cc2)cc1 (repeat unit) ; glass transition temperature = 203.00
